Assayed system: T1, human IL-11 (human, UniProt P20809 22-199)
T1 sequence: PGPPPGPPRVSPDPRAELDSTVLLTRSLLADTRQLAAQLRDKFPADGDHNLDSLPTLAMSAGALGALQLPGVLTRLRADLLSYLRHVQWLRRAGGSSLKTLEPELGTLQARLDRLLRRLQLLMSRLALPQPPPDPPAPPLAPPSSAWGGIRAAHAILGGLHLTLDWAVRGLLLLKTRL
Test details: cell-based or functional assay
Field 'label' (enum: yes / no). Set to yes when RGA IC50 is strictly under 2 nM; else no.

>>> assigned_category("TPP-29384 (antibody, human IgG1, V domains shown) VH: EVQLLESGGGLVQPGGSLRLSCAASGFTFSSYGMHWVRQAPGKGLEWVAVISYDGSYKYYADSVKGRFTISRDNSKNTLYLQMNSLRAEDTAVYYCAAGVPDYWGQGTLVTVSS VL: QSVLTQPPSASGTPGQRVTISCSGSSSNIGSGYDVHWYQQLPGTAPKLLIYSNEERPSGVPDRFSGSKSGTSASLAISGLRSEDEADYYCAAWDPSLSGPVFGGGTKLTVL")
"no"
>>> assigned_category("TPP-29383 (antibody, human IgG1, V domains shown) VH: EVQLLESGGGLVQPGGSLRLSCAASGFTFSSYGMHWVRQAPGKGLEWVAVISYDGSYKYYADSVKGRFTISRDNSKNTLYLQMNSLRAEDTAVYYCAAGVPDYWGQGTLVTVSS VL: QSVLTQPPSASGTPGQRVTISCSGSSSNIGSDLDVHWYQQLPGTAPKLLIYSNEERPSGVPDRFSGSKSGTSASLAISGLRSEDEADYYCAAWDPSLYGPVFGGGTKLTVL")
"yes"
>>> assigned_category("TPP-29394 (antibody, human IgG1, V domains shown) VH: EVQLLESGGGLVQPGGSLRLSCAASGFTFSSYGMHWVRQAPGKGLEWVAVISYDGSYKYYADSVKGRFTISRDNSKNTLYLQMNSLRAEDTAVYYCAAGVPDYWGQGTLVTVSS VL: QSVLTQPPSASGTPGQRVTISCSGSSSNIGSDYDVHWYQQLPGTAPKLLIYSNNERPSGVPDRFSGSKSGTSASLAISGLRSEDEADYYCAAWDFSLYGPVFGGGTKLTVL")
"yes"

Please state whether RGA IC50 is below 2 nM for TPP-29401 (antibody, human IgG1, V domains shown) VH: EVQLLESGGGLVQPGGSLRLSCAASGFTFSSYGGHWVRQAPGKGLEWVAVISYDGSYKYYADSVKGRFTISRDNSKNTLYLQMNSLRAEDTAVYYCAAGVPDYWGQGTLVTVSS VL: QSVLTQPPSASGTPGQRVTISCSGSSSNIGSYYDVHWYQQLPGTAPKLLIYSNEERPSGVPDRFSGSKSGTSASLAISGLRSEDEADYYCAAWDDSLSGPVFGGGTKLTVL
yes

I'd appreciate it if you could check whether TPP-29400 (antibody, human IgG1, V domains shown) VH: EVQLLESGGGLVQPGGSLRLSCAASGFTFSSYGGHWVRQAPGKGLEWVALISYDGSYKYYADSVKGRFTISRDNSKNTLYLQMNSLRAEDTAVYYCAAGVPDYWGQGTLVTVSS VL: QSVLTQPPSASGTPGQRVTISCSGSSSNIGSDYDVHWYQQLPGTAPKLLIYSNNERPSGVPDRFSGSKSGTSASLAISGLRSEDEADYYCAAWDFSLSGPVFGGGTKLTVL has RGA IC50 smaller than 2 nM.
yes
